- procedure text: Stability in phosphate buffer saline assessed as amount of parent drug released from cattle bone meal powder over 24 hrs
- Assay type: ADME
measured endpoint: Activity (%)

1 = COc1c(N2CCNC(C)C2)c(F)cc2c(=O)c(C(=O)OCC(=O)Nc3ccc(CC(P(=O)(O)O)P(=O)(O)O)cc3)cn(C3CC3)c12 (stereo unspecified)
2 = COc1c(N2CCNC(C)C2)c(F)cc2c(=O)c(C(=O)Oc3ccc(C(P(=O)(O)O)P(=O)(O)O)cc3)cn(C3CC3)c12 (stereo unspecified)
3 = COc1c(N2C[C@@H]3CCCN[C@@H]3C2)c(F)cc2c(=O)c(C(=O)SCC(=O)NC(P(=O)(O)O)P(=O)(O)O)cn(C3CC3)c12
4 = COc1c(N2C[C@@H]3CCCN[C@@H]3C2)c(F)cc2c(=O)c(C(=O)SCCCC(P(=O)(O)O)P(=O)(O)O)cn(C3CC3)c12
*Q* Please produce an ascending ranking of these compounds based on Activity. Reply format: the labels, ordered as requested.
*A* 4, 2, 3, 1

I = COc1c(N2C[C@@H]3CCCN[C@@H]3C2)c(F)cc2c(=O)c(C(=O)OCC(=O)N(C)C(P(=O)(O)O)P(=O)(O)O)cn(C3CC3)c12
II = COc1c(N2CCNC(C)C2)c(F)cc2c(=O)c(C(=O)OCC(=O)NC(P(=O)(O)O)P(=O)(O)O)cn(C3CC3)c12 (stereo unspecified)
*Q* Kindly identify the item with the lower Activity figure among these two: I and II Response format: the label of the selected entry.
*A* I

* * *

- procedure text: Stability in phosphate buffer saline assessed as amount of parent drug released from cattle bone meal powder over 24 hrs
- Assay type: ADME
measured endpoint: Activity (%)

Examples with their reported Activity follow.
{"compound": "COc1c(N2C[C@@H]3CCCN[C@@H]3C2)c(F)cc2c(=O)c(C(=O)OCCCCC(P(=O)(O)O)P(=O)(O)O)cn(C3CC3)c12", "measured endpoint": "Activity", "assay value": 0.01}
{"compound": "COc1c(N2C[C@@H]3CCCN[C@@H]3C2)c(F)cc2c(=O)c(C(=O)OCC(=O)Nc3ccc(CC(P(=O)(O)O)P(=O)(O)O)cc3)cn(C3CC3)c12", "measured endpoint": "Activity", "assay value": 0.6}
{"compound": "COc1c(N2CCNC(C)C2)c(F)cc2c(=O)c(C(=O)OCC(=O)N(C)C(P(=O)(O)O)P(=O)(O)O)cn(C3CC3)c12 (stereo unspecified)", "measured endpoint": "Activity", "assay value": 1.1}
{"compound": "COc1c(N2CCNC(C)C2)c(F)cc2c(=O)c(C(=O)OCC(=O)NCCCC[C@@H](NC(=O)COC(=O)c3cn(C4CC4)c4c(OC)c(N5CCNC(C)C5)c(F)cc4c3=O)C(=O)NC(P(=O)(O)O)P(=O)(O)O)cn(C3CC3)c12 (stereo partly specified)", "measured endpoint": "Activity", "assay value": 0.2}

1 = COc1c(N2CCNC(C)C2)c(F)cc2c(=O)c(C(=O)SCCCC(P(=O)(O)O)P(=O)(O)O)cn(C3CC3)c12 (stereo unspecified)
2 = COc1c(N2C[C@@H]3CCCN[C@@H]3C2)c(F)cc2c(=O)c(C(=O)OCC(=O)NC(P(=O)(O)O)P(=O)(O)O)cn(C3CC3)c12
*Q* Kindly identify the item with the lower Activity figure among these two: 1 and 2 Response format: the label of the selected entry.
*A* 1
